target: human CD3 expressed on cells (Jurkat cells; human T-cells of PBMC) (human, UniProt P09693 23-182; P20963 22-164); assay: cell-based or functional assay
Sequence (chain, as listed by the source, chain 1 of 4): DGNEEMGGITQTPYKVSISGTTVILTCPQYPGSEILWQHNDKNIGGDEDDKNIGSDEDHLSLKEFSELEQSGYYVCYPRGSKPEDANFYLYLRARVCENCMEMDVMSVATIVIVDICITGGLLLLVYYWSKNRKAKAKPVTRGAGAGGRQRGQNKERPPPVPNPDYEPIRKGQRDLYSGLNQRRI
Sequence (chain, as listed by the source, chain 2 of 4): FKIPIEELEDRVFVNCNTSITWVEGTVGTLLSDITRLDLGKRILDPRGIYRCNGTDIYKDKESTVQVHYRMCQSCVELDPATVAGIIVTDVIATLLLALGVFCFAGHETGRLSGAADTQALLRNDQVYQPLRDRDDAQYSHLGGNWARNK
Sequence (P09693 23-182, chain 3 of 4): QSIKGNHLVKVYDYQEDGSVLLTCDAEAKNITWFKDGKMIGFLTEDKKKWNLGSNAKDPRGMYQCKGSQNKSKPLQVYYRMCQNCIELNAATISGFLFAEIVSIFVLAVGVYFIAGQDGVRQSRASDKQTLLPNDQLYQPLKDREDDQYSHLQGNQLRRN
Sequence (P20963 22-164, chain 4 of 4): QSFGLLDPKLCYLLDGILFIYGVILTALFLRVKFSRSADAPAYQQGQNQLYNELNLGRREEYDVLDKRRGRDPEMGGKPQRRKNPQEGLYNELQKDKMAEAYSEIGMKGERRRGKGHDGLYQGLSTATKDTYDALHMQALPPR
Give EC50 [M] hPBMC Proliferation for every item shown.
Express your answer in M, writing the number without its unit.

Incoming: Form field: reported EC50 [M] hPBMC Proliferation of H1H5788P (antibody, V domains shown, H1H: human IgG1 Fc) VH: EVQLVESGGGLVQPGRSLRLSCAASGFTFDDYTMHWVRQAPGKGLEWVSGISWNSGSIGYADSVKGRFTISRDNAKNSLYLQMNSLRAEDTALFYCAKDQSGYGHYYYGMDVWGQGTTVTVSS VL: EIVMTQSPATLSVSPGERATLSCRASQSVSSNLAWYQQKPGQAPRLLIYGASTRATDIPARFSGSGSGTEFTLTISSLQSEDFAVYHCQQYNNWPLTFGGGTKVEIK
Outgoing: 4.62e-12

Incoming: Can you share its EC50 [M] hPBMC Proliferation? I mean this binder: H1H5757B (antibody, human IgG1, V domains shown, H1H: human IgG1 Fc) VH: EVQLVESGGGVVQPGRSLRLSCAASGFTFSSYGMHWVRQAPGKGLEWVTVILHDGSNRYSADSVKGRFTISRDNSKNTLYLQMNILRVEDTAVYYCTKGAMVRGVPYNHYYGMDVWGQGTTVTVSS VL: DIQMTQSPSSLSASVGDRVTITCRASQGIRNDLGWYQQKPGKAPKRLIYAASILQSGVPSRFSGSGSGTEFTLTISSLQPEDFATYYCLQHNSYPYTFGQGTKLEIKR
Outgoing: 4.86e-12

Incoming: Using the record for H1H5753B (antibody, V domains shown) VH: QVQLVESGGGLVQPGGSLRLSCAASYFTFSSFAMNWVRQAPGQGLEWVSAISGRVSAISGSGGITYYADSVKGRFIISRDNSKNTLYLQMSGLRAEDTAVYYCAKGPYLTTVTPFDYWGQGTLVTVSS VL: DIQLTQSPSSVSASVGDRVTITCRASQGISSWLAWYQQKPGKAPKLLIYAVSSLQNGVPSRFSGSGSGTDFTLTISSLQPEDFATYYCQQANSFPFTFGPGTKLEIK , report its EC50 [M] hPBMC Proliferation.
Outgoing: 9.14e-11

Incoming: Which EC50 [M] hPBMC Proliferation value belongs to H1H5799P (antibody, human IgG1, V domains shown) VH: QVQLVQSGAEVKKPGASVKVSCKASGYTFIGYYMHWVRQAPGQGLEWMGWINPKSGGTNYAQKFQGRVTMTGDTSISTAYMELSRLRSDDTAVFYCARMGDGAMFDYWGQGTLVTVSS VL: DIQMTQSPSSLSASVGDRVTITCRASQRISSYLNWYQQKAGKAPKVLIYTASSLQSGVPSRFSGSGSGTDFTLTISSLQPEDFATYYCQQSYSTPLTFGGGTKVEIK ?
Outgoing: 1.63e-13
